Biological target: Glutamate receptor 4 (Homo sapiens, UniProt P48058)
Sequence (P48058 whole entry): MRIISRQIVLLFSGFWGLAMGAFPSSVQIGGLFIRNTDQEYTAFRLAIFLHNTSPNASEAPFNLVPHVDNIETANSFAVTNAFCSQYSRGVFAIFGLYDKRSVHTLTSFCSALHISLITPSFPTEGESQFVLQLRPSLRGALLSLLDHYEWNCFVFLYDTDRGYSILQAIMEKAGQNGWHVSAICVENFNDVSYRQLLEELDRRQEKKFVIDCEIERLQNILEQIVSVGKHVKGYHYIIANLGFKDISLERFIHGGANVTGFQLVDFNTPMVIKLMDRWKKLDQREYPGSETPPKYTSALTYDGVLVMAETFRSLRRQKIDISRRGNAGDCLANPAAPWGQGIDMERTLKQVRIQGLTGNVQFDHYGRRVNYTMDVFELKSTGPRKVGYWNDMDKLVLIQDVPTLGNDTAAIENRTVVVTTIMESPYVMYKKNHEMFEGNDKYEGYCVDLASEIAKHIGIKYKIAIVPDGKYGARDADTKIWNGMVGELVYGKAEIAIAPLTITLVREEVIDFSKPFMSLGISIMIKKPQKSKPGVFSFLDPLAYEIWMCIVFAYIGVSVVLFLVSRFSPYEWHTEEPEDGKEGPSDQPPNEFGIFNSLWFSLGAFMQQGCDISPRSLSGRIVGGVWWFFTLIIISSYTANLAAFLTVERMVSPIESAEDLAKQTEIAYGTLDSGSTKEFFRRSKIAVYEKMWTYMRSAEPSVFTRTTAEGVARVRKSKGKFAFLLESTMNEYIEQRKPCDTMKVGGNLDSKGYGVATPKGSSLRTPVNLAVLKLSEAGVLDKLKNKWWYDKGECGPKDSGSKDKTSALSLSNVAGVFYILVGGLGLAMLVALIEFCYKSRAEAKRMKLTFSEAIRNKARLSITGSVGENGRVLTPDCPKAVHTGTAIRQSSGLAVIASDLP
Assay: Tested for potentiation towards human iGluR4 receptor expressed in HEK293 cells
pEC50: −log10 of the molar value.
In this scheme, each record receives a class according to its pEC50; the ranges are c1 (below 5), c2 (5 to below 6), c3 (6 or more)

compound | targetEntity | category
CC(CNS(=O)(=O)c1ccccc1)c1ccc(-c2ccccc2F)cc1 (stereo not drawn) | Glutamate receptor 4 (Homo sapiens, UniProt P48058) | c1
CCCS(=O)(=O)NCC(C)c1ccc(-c2ccccc2F)cc1 (stereo not drawn) | Glutamate receptor 4 (Homo sapiens, UniProt P48058) | c1
CC(CNS(C)(=O)=O)c1ccc(-c2ccccc2F)cc1 (stereo not drawn) | Glutamate receptor 4 (Homo sapiens, UniProt P48058) | c1
NS(=O)(=O)c1cc2c(cc1Cl)NC(C1CC3C=CC1C3)NS2(=O)=O (stereo not drawn) [CYCLOTHIAZIDE] | Glutamate receptor 4 (Homo sapiens, UniProt P48058) | c2
CC(CNS(=O)(=O)C(C)C)c1ccc(-c2ccccc2F)cc1 (stereo not drawn) | Glutamate receptor 4 (Homo sapiens, UniProt P48058) | c2
CC(CNS(=O)(=O)C(C)C)c1ccc(-c2ccc(C#N)cc2)cc1 (stereo not drawn) | Glutamate receptor 4 (Homo sapiens, UniProt P48058) | c3
CCS(=O)(=O)NCC(C)c1ccc(-c2ccccc2F)cc1 (stereo not drawn) | Glutamate receptor 4 (Homo sapiens, UniProt P48058) | c2
CC(CNS(=O)(=O)C(C)C)c1ccc(-c2ccc(N)cc2)cc1 (stereo not drawn) | Glutamate receptor 4 (Homo sapiens, UniProt P48058) | c3
CC(CNS(=O)(=O)N(C)C)c1ccc(-c2ccccc2F)cc1 (stereo not drawn) | Glutamate receptor 4 (Homo sapiens, UniProt P48058) | c2
CCCCS(=O)(=O)NCC(C)c1ccc(-c2ccccc2F)cc1 (stereo not drawn) | Glutamate receptor 4 (Homo sapiens, UniProt P48058) | c1
CCC(CNS(=O)(=O)C(C)C)c1ccc(C(C)(C)C)cc1 (stereo not drawn) | Glutamate receptor 4 (Homo sapiens, UniProt P48058) | c2
CC(CN)c1ccc(-c2ccccc2F)cc1 (stereo not drawn) | Glutamate receptor 4 (Homo sapiens, UniProt P48058) | c1
Cc1ccc(-c2ccc(C(C)CNS(=O)(=O)C(C)C)cc2)cc1 (stereo not drawn) | Glutamate receptor 4 (Homo sapiens, UniProt P48058) | c3
CC(CNS(=O)(=O)C(F)(F)F)c1ccc(-c2ccccc2F)cc1 (stereo not drawn) | Glutamate receptor 4 (Homo sapiens, UniProt P48058) | c1
CCCC(CNS(=O)(=O)C(C)C)c1ccc(C(C)(C)C)cc1 (stereo not drawn) | Glutamate receptor 4 (Homo sapiens, UniProt P48058) | c1
CC(CNS(=O)(=O)C(C)C)c1ccc(-c2ccc(C=O)cc2)cc1 (stereo not drawn) | Glutamate receptor 4 (Homo sapiens, UniProt P48058) | c3
CC(C)S(=O)(=O)NCC(Cc1ccccc1)c1ccc(C(C)(C)C)cc1 (stereo not drawn) | Glutamate receptor 4 (Homo sapiens, UniProt P48058) | c1
CC(C)S(=O)(=O)NCC(CCc1ccccc1)c1ccc(C(C)(C)C)cc1 (stereo not drawn) | Glutamate receptor 4 (Homo sapiens, UniProt P48058) | c1

---

Target: UniProtKB P48058
Test: Tested for potentiation towards human iGluR4 receptor expressed in HEK293 cells
pEC50: −log10 of the molar value.
Readings of pEC50 for the listed compounds
assayMetric: pEC50

compound | targetEntity | valueOperator | experimentalValue
O=C(c1ccc2nccnc2c1)N1CCCCC1 [CX516] | UniProtKB P48058 | < | 3.00
CC(CNS(C)(=O)=O)c1ccc(-c2ccsc2)cc1 (stereo unspecified) | UniProtKB P48058 | = | 5.35
CC(CNS(=O)(=O)C(C)C)c1ccc(-c2ccsc2)cc1 (stereo unspecified) | UniProtKB P48058 | = | 6.18
CC(CNS(=O)(=O)C(C)C)c1ccc(C(C)(C)C)cc1 (stereo unspecified) | UniProtKB P48058 | = | 5.92
CC(CNS(=O)(=O)Cc1ccccc1)c1ccc(-c2ccccc2F)cc1 (stereo unspecified) | UniProtKB P48058 | < | 4.00
CC(C)S(=O)(=O)NCCc1ccc(-c2ccccc2F)cc1 | UniProtKB P48058 | = | 5.14
